Test system: A-549 (human lung adenocarcinoma)
Test: Cytotoxicity curve, A-549 cell line
Type: cell-based
Conditions: mean ± SEM, at least 3 independent experiments
Would you kindly list pIC50 for each of these compounds?
Note: pIC50 values are expressed as the negative base-10 logarithm of concentration in M.

May I ask what pIC50 has been recorded for C[S+]([O-])CCCCN=C=S (centres unmarked) [SF Sigma ®] ?
4.78

May I ask what pIC50 has been recorded for C[S@@+]([O-])CCCCN=C=S (racemic) [SF] ?
4.71
